# target_entity: T1, recombinant His-tagged human TIGIT-ECD protein (human, UniProt Q495A1 22-141)
# T1 construct: extracellular domain; The ELISA text only says His-tagged human TIGIT; also called His-tagged TIGIT; human TIGIT protein; not shown: His tag
# T1 sequence (looked up): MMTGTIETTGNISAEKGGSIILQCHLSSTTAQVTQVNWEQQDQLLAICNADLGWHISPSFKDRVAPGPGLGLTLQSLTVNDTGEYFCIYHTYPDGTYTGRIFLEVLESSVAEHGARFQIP
# measurement_description: SPR affinity ranking (Biacore T200)
Please respond with reported kon for every item in the list.
Answers are plain numbers, in M⁻¹ s⁻¹.

• 101E1HM-5 (antibody, V domains shown) VH: QVQLQESGPGLVKPSQTLSLTCTVSGYSITDDYAWNWIRQPPGKGLEWMGYISYSGITRYNPSLKSRVTISRDTSKNQFSLKLSSVTAADTAVYYCARKYYGGWFPQWGQGTLVTVSS VL: DIQMTQSPSSLSASVGDRVTITCKASQDVFTAVAWYQQKPGKAPKLLIYSASYRDTGVPSRFSGSGSGTDFTFTISSLQPEDFATYYCQQSYSTPWTFGQGTRLEIK = 1.63e+06

Field kon (entry 101E1HM-2 (antibody, V domains shown) VH: QVQLQESGPGLVKPSQTLSLTCTVSGYSITDDYAWNWIRQPPGKGLEWMGYISYSGNTMYNPSLKSRVTISRDTSKNQFSLKLSSVTAADTAVYYCARKYYGGWFPIWGQGTLVTVSS VL: DIQMTQSPSSLSASVGDRVTITCKASQDVFTAVAWYQQKPGKAPKLLIYSASYRHTGVPSRFSGSGSGTDFTFTISSLQPEDFATYYCQQSYSTPWTFGQGTRLEIK ) reads 1.29e+06
